Overview of reported Zeta potential (mV) across a group of molecules:
Experimental protocol: LNP Zeta potential measured using a Zetasizer (Malvern)
Type: physicochemical
Setup conditions: Table 11; LNP with hEPO mRNA, Lipid:DSPC:Cholesterol:DMG-PEG2k 50:10:38.5:1.5 mol % (ALC-0315: 46.3:9.4:42.7:1.6), N:P ratio 6; HEPES/sodium chloride/sucrose buffer, stored at −80C

Molecule | Unit | Zeta potential (mV)
CCCCCCCC(CCCCCCC)C(=O)OCCN(CCOC(=O)C(CCCCCCC)CCCCCCC)C(=O)C(C)CCN(C)C.Cl (centres unmarked) [Compound 987b] | mV | −2.1
CCCCCCCCC(CCCCCC)C(=O)OCCN(CCOC(=O)C(CCCCCC)CCCCCCCC)C(=O)C(C)CCN1CCOCC1.Cl (centres unmarked) [Compound 987n] | mV | −3.8
CCCCCCCCC(CCCCCC)C(=O)OCCN(CCOC(=O)C(CCCCCC)CCCCCCCC)C(=O)C(C)CCN(CCC)CCC.Cl (centres unmarked) [Compound 987k] | mV | −3.4
CCCCCCCCC(CCCCCC)C(=O)OCCN(CCOC(=O)C(CCCCCC)CCCCCCCC)C(=O)C(C)CCN(CCCC)CCCC.Cl (centres unmarked) [Compound 987o] | mV | −4.1
CCCCCCCCC(CCCCCC)C(=O)OCCN(CCOC(=O)C(CCCCCC)CCCCCCCC)C(=O)C(C)CCN(CC)CC.Cl (centres unmarked) [Compound 987g] | mV | −3.5
CCCCCCCCC(CCCCCC)C(=O)OCCN(CCOC(=O)C(CCCCCC)CCCCCCCC)C(=O)C(C)CCN(C)CC.Cl (centres unmarked) [Compound 987f] | mV | −2.8
CCCCCCCCC(CCCCCC)C(=O)OCCN(CCOC(=O)C(CCCCCC)CCCCCCCC)C(=O)C(C)CCNC.Cl (centres unmarked) [Compound 987d] | mV | −1.5
CCCCCCCCC(CCCCCC)C(=O)OCCN(CCOC(=O)C(CCCCCC)CCCCCCCC)C(=O)C(C)CCN1CCCC1.Cl (centres unmarked) [Compound 987l] | mV | −2.9
CCCCCCCCC(CCCCCC)C(=O)OCCN(CCOC(=O)C(CCCCCC)CCCCCCCC)C(=O)C(C)CCN(C)C (centres unmarked) [Compound 987a] | mV | −3.5
CCCCCCCCC(CCCCCC)C(=O)OCCN(CCOC(=O)C(CCCCCC)CCCCCCCC)C(=O)C(C)CCN(CC)CCC.Cl (centres unmarked) [Compound 987j] | mV | −4.4
CCCCCCCCC(CCCCCC)C(=O)OCCN(CCOC(=O)C(CCCCCC)CCCCCCCC)C(=O)C(C)CCNCCC.Cl (centres unmarked) [Compound 987h] | mV | 0.0
CCCCCCCCCC(CCCCCCCCC)C(=O)OCCN(CCOC(=O)C(CCCCCCCCC)CCCCCCCCC)C(=O)C(C)CCN(C)C.Cl (centres unmarked) [Compound 987c] | mV | −6.6
CCCCCCCCC(CCCCCC)C(=O)OCCCCCCN(CCCCO)CCCCCCOC(=O)C(CCCCCC)CCCCCCCC (centres unmarked) [ALC-0315, reference compound] | mV | −7.5
CCCCCCCCC(CCCCCC)C(=O)OCCN(CCOC(=O)C(CCCCCC)CCCCCCCC)C(=O)C(C)CCNCC.Cl (centres unmarked) [Compound 987e] | mV | 0.8
